These measurements were taken from the supplement of paper PMC11208160.

ASSAY_TEXT: recombinant UMI read abundance after kanamycin selection (control-corrected) (log10(CPM+1)); higher = more efficient recombination; extreme values may be limits of the assay; sequences stand for … in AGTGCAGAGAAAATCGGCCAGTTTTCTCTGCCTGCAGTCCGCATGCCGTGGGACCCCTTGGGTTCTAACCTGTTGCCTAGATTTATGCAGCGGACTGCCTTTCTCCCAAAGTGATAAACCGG…AGGTTGGTTTCACT; site = the 11-nt donor;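 note: IS621 bridge recombinase in Escherichia coli cells against a fixed T5 target plasmid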
recombinant UMI read abundance (log10) vs 0.4: at or above is condition met, below is condition not met.

Below, 10 sequences whose answers are already recorded.
>  <SEQUENCE_CODE>
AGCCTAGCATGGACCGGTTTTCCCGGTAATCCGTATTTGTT (site AGCCTAGCTAA)

>  <CATEGORY_LABEL>
condition not met

$$$$
>  <SEQUENCE_CODE>
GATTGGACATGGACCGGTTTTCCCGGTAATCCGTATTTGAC (site GATTGGGCTGT)

>  <CATEGORY_LABEL>
condition not met

$$$$
>  <SEQUENCE_CODE>
TAATGAGCATGGACCGGTTTTCCCGGTAATCCGTATTTGGC (site TAATGAGCTCC)

>  <CATEGORY_LABEL>
condition not met

$$$$
>  <SEQUENCE_CODE>
GAGCACACATGGACCGGTTTTCCCGGTAATCCGTATTTGAT (site GAGCACACTAT)

>  <CATEGORY_LABEL>
condition met

$$$$
>  <SEQUENCE_CODE>
GGTAATCCATGGACCGGTTTTCCCGGTAATCCGTATTTGAA (site GGCAATCCTTT)

>  <CATEGORY_LABEL>
condition met

$$$$
>  <SEQUENCE_CODE>
CCTAAAGCATGGACCGGTTTTCCCGGTAATCCGTATTTGGT (site CCTAAAGCTAA)

>  <CATEGORY_LABEL>
condition not met

$$$$
>  <SEQUENCE_CODE>
TACCACACATGGACCGGTTTTCCCGGTAATCCGTATTTGTC (site TACCACACTGA)

>  <CATEGORY_LABEL>
condition met

$$$$
>  <SEQUENCE_CODE>
CCTATATCATGGACCGGTTTTCCCGGTAATCCGTATTTGTC (site CCAATATCTGA)

>  <CATEGORY_LABEL>
condition not met

$$$$
>  <SEQUENCE_CODE>
CCAAAACCATGGACCGGTTTTCCCGGTAATCCGTATTTGTT (site CCAAAACCTAA)

>  <CATEGORY_LABEL>
condition not met

$$$$
>  <SEQUENCE_CODE>
CGCAAGACATGGACCGGTTTTCCCGGTAATCCGTATTTGCA (site CGCAAGACTTG)

>  <CATEGORY_LABEL>
condition met

$$$$

# input for lookup
Query block: Please check the record CCGAAGCCATGGACCGGTTTTCCCGGTAATCCGTATTTGGG (site ACGAAGCCTCC) and state if its recombinant UMI read abundance (log10) is at or above 0.4.
Result block: condition not met
